Source of measurements: patent US12370263B2

- SUBJECT OF TEST: Human STING (Homo sapiens, UniProt Q86WV6, G230A/H232R/R293Q/R71H)
- Sequence (Q86WV6 whole entry R71H/G230A/H232R/R293Q): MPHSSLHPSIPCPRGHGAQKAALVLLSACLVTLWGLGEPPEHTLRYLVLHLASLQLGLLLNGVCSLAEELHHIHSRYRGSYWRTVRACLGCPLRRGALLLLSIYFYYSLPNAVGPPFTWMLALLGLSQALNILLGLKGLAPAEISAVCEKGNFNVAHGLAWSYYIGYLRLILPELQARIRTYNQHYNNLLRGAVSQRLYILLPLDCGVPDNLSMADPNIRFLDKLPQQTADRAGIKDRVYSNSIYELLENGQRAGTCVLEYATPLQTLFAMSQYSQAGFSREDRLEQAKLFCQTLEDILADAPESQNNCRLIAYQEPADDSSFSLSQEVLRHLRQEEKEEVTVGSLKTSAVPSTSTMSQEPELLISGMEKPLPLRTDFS
- TEST METHOD NOTES: Reporter gene assay, human STING agonist activity, THP1-Dual cells (HAQ-mutated), IRF pathway
- DETAILS: THP1-Dual cells IRF EC50, THP1-Dual cells (HAQ-mutated), 24 hours; 100% = maximum count with ML-RR-CDA·2Na+
METRIC: EC50 (nM)

In the examples that follow, each entry is paired with its recorded EC50.
O=C(CO)NCCn1cnc2c(ncn2[C@@H]2O[C@@H]3COP(=O)(S)O[C@H]4[C@@H](F)[C@H](n5cc6c7c(ncnc75)NCCC6)O[C@@H]4COP(=O)(S)O[C@@H]2[C@@H]3O)c1=O (single isomer, unassigned) [36a]    2000
NCc1nc(N)c2ncn([C@@H]3O[C@@H]4COP(=O)(S)O[C@H]5[C@@H](O)[C@H](n6cc7c8c(ncnc86)NCCC7)O[C@@H]5COP(=O)(S)O[C@@H]3[C@@H]4O)c2n1 (single isomer, unassigned) [11a]    4000
O=c1c2ncn([C@@H]3O[C@@H]4COP(=O)(S)O[C@H]5[C@@H](F)[C@H](n6cc7c8c(ncnc86)NCCC7)O[C@@H]5COP(=O)(S)O[C@@H]3[C@@H]4O)c2ncn1CCO (single isomer, unassigned) [34a]    200
O=C(CO)NCCn1cnc2c(ncn2[C@@H]2O[C@@H]3COP(=O)(S)O[C@H]4[C@@H](O)[C@H](n5cc6c7c(ncnc75)NCCC6)O[C@@H]4COP(=O)(S)O[C@@H]2[C@@H]3O)c1=O (single isomer, unassigned) [7b]    6100
NCCn1cnc2c(ncn2[C@@H]2O[C@@H]3COP(=O)(S)O[C@H]4[C@@H](F)[C@H](n5cc6c7c(ncnc75)NCCC6)O[C@@H]4COP(=O)(S)O[C@@H]2[C@@H]3O)c1=O (single isomer, unassigned) [35a]    2000

I. O=c1c2ncn([C@@H]3O[C@@H]4COP(=O)(O)O[C@H]5[C@@H](F)[C@H](n6cc7c8c(ncnc86)NCCC7)O[C@@H]5COP(=O)(S)O[C@@H]3[C@@H]4O)c2ncn1CCO (single isomer, unassigned) [52a]
II. O=c1c2ncn([C@@H]3O[C@@H]4COP(=O)(S)O[C@H]5[C@@H](F)[C@H](n6cc7c8c(ncnc86)SCCC7)O[C@@H]5COP(=O)(S)O[C@@H]3[C@@H]4O)c2ncn1CCO (single isomer, unassigned) [48b]
Q. Between item I and item II , which reported EC50 is smaller? // respond with label for picked entry
A. II
(II: 39 nM, I: 310 nM)

P. Nc1nc2c(ncn2[C@@H]2O[C@@H]3COP(=O)(S)O[C@H]4[C@@H](O)[C@H](n5cc6c7c(ncnc75)NCCC6)O[C@@H]4COP(=O)(S)O[C@@H]2[C@@H]3O)c(=O)[nH]1 (single isomer, unassigned) [4a]
Q. O=C(CO)NCCn1cnc2c(ncn2[C@@H]2O[C@@H]3COP(=O)(S)O[C@H]4[C@@H](O)[C@H](n5cc6c7c(ncnc75)NCCC6)O[C@@H]4COP(=O)(S)O[C@@H]2[C@@H]3F)c1=O (single isomer, unassigned) [41a]
Q. Decide: P or Q , by lowest recorded EC50. Please indicate the selected item by its label.
A. Q
